Every entry's value here was drawn from patent US6878712B1.

Counter-ions that a name gives are not always drawn.
Entries annotated with measured melting point

Guide cases for melting point, answers given:
In [3]: df
Out[3]:
                                   compound   assay_result
0  C[C@@H]1CN(C(=O)[C@@](C)(O)C(F)(F)F)[C@@H](C)CN1S(=O)(=O)c1ccc(C(=O)O)cc1  194 to 196 °C
1  C[C@@](O)(C(=O)N1CCC(C(=O)c2ccc(F)cc2)CC1)C(F)(F)F    78 to 79 °C
2  CCS(=O)(=O)N1C[C@H](C)N(C(=O)[C@@](C)(O)C(F)(F)F)C[C@H]1C  142 to 144 °C
3  C[C@@H]1CN(C(=O)[C@@](C)(O)C(F)(F)F)[C@@H](C)CN1S(=O)(=O)c1ccc(C(=O)N(C)C)cc1    86 to 87 °C
4  C[C@@H]1CN(C(=O)[C@@](C)(O)C(F)(F)F)[C@@H](C)CN1C(=O)c1ccc(F)cc1  177 to 178 °C

Per the record, "C[C@@H]1CN(C(=O)[C@@](C)(O)C(F)(F)F)[C@@H](C)CN1S(=O)(=O)c1ccc(C#N)cc1" has melting point of 186 to 187 °C

Per the record, "C[C@@H]1CN(C(=O)[C@@](C)(O)C(F)(F)F)[C@@H](C)CN1S(=O)(=O)c1ccc(F)cc1" has melting point of 174 to 175 °C

Per the record, "C[C@@H]1CN(C(=O)[C@@](C)(O)C(F)(F)F)[C@@H](C)CN1S(=O)(=O)c1cccs1" has melting point of 116 to 117 °C

Per the record, C[C@@](O)(C(=O)N1CCC(N)CC1)C(F)(F)F (as salt: hydrochloride) has melting point of 245 to 246 °C
